The entries below come with measured pIC50 values attached.
Test system: PBMCs
Experiment: Treatment of PBMCs from healthy donors with USP10-targeting inhibitors
Assay type: cell-based, human
Conditions: 72 hr assay; PBMC#2; read-out: IC50 (+/−S.D.) PBMC#2
pIC50: −log10 of the molar value.
Recorded Endpoint: pIC50

• CCN(CCCNC(=O)c1ccc2nc3c(c(Cl)c2c1)CCC3)Cc1ccccc1 [C673-0105] = 5.14
• CCCN(CCC)CCCNC(=O)c1ccc2c(Cl)c3c(nc2c1)CCCC3 [C598-0466] = 5.51
• O=C(NCCN1CCN(Cc2ccccc2)CC1)c1ccc2nc3c(c(Cl)c2c1)CCCC3 [C598-0571] = 4.83
• O=C(NCCCN1CCN(Cc2ccccc2)CC1)c1ccc2nc3c(c(Cl)c2c1)CCCC3 [C598-0563] = 5.10

###

The entries below come with measured IC50 values attached.
System: PBMCs
Test: Treatment of PBMCs from healthy donors with USP10-targeting inhibitors
Format: cell-based, human
Conditions: 72 hr assay; PBMC#1; read-out: IC50 (+/−S.D.) PBMC#1
Recorded Endpoint: IC50 (µM)

* O=C(NCCCN1CCN(Cc2ccccc2)CC1)c1ccc2nc3c(c(Cl)c2c1)CCCC3 | 15.6
* O=C(NCCN1CCN(Cc2ccccc2)CC1)c1ccc2nc3c(c(Cl)c2c1)CCCC3 | 16.6
* CCCN(CCC)CCCNC(=O)c1ccc2c(Cl)c3c(nc2c1)CCCC3 | 4.8
* CCN(CCCNC(=O)c1ccc2nc3c(c(Cl)c2c1)CCC3)Cc1ccccc1 | 10

###

Target: USP7 (Homo sapiens, UniProt Q93009)
Sequence (Q93009 whole entry): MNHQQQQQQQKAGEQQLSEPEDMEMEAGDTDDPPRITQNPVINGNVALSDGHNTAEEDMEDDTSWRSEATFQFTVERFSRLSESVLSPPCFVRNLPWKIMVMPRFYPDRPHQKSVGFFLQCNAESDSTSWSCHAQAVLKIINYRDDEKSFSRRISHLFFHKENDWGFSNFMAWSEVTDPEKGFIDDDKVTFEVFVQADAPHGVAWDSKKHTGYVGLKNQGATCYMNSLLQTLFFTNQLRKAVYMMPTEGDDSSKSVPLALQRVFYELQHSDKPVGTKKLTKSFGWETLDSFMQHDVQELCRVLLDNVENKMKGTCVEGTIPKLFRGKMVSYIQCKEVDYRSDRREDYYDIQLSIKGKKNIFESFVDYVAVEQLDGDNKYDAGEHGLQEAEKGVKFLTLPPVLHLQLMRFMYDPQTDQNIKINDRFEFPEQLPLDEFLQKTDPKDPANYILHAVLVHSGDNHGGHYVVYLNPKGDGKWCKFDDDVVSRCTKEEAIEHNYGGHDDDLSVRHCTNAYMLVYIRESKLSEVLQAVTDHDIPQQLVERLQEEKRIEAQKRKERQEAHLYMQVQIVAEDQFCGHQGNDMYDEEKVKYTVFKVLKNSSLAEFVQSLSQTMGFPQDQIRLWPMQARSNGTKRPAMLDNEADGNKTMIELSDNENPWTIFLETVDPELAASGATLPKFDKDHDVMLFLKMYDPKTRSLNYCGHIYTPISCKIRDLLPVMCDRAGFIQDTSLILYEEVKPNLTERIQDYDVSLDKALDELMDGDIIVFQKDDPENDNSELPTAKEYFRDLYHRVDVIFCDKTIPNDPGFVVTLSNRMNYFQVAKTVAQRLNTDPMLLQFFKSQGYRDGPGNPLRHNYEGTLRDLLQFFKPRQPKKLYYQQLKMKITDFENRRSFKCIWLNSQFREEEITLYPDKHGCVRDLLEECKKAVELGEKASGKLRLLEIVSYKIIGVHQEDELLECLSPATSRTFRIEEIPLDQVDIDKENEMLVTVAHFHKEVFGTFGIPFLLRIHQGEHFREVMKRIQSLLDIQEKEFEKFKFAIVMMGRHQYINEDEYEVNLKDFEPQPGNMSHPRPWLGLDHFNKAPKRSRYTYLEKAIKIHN
Test: MALDI TOF DUB assay with diubiquitin substrate
Type: biochemical
Settings: diubiquitin as substrate, same assay as USP10
Recorded Endpoint: IC50 (µM)

* CN(CCCNC(=O)c1ccc2nc3c(c(Cl)c2c1)CCCC3)Cc1ccccc1 [HBX19818, reference compound] | 57

###

Tested on: NOMO-1
Experiment: Anti-proliferation, 24 hr treatment (CellTiter-Glo)
Type: cell-based, human
Conditions: Homo sapiens, NOMO-1, 24 h, read-out: Anti-proliferation IC50
pIC50: −log10 of the molar value.
Recorded Endpoint: pIC50

- CN(CCCNC(=O)c1ccc2nc3c(c(Cl)c2c1)CCCC3)Cc1ccccc1 [HBX19818, reference compound]: 4.79

###

Target: USP7 (Homo sapiens)
Experiment: USP7 IC50 of HBX19818 analogs (Table 9)
Type: biochemical
Details: read-out: USP7 IC50 +/− SEM
The entries below come with measured IC50 values attached.
Recorded Endpoint: IC50

• CCN(CCCNC(=O)c1ccc2nc3c(c(Cl)c2c1)CCC3)Cc1ccccc1 [C673-0105] = > 100 µM
• CCCN(CCC)CCCNC(=O)c1ccc2c(Cl)c3c(nc2c1)CCCC3 [C598-0466] = 3.6 µM
• O=C(NCCN1CCN(Cc2ccccc2)CC1)c1ccc2nc3c(c(Cl)c2c1)CCCC3 [C598-0571] = 22 µM
• O=C(NCCc1ccc(Cl)cc1)c1ccc2nc3c(c(Cl)c2c1)CCCC3 [C598-0515] = > 100 µM
• CCN(CCCNC(=O)c1ccc2nc3c(c(Cl)c2c1)CCCC3)c1ccccc1 [C598-0468] = > 100 µM
• CCN(CC)S(=O)(=O)c1ccc(NC(=O)c2ccc3nc4c(c(Cl)c3c2)CCCC4)cc1 [C598-0646] = > 100 µM
• O=C(NCCCN1CCN(Cc2ccccc2)CC1)c1ccc2nc3c(c(Cl)c2c1)CCCC3 [C598-0563] = 50 µM

Values were extracted from patent US11136409B2.
